Test: qHTS assay to identify small molecule antagonists of the retinoid acid receptor (RAR) signaling pathway - cell viability counter screen (AID 1159551); further: nearly all actives have a fitted effect of over 35% in size; further: potency means the concentration at half of the fitted maximal effect
Settings: C3RL4 cells viability, ATP luminescence (CellTiter-Glo), 6 h; series mostly up to 92.4 µM
Experimental: U.S. Tox21 Program National Center for Advancing Translational Sciences [NCATS] NIH Chemical Genomics Center [NCGC] U.S. Environmental Protection Agency [EPA] National Institutes of Environmental Health Sciences [NIEHS] National Toxicology Program [NTP] U.S. Food and Drug Administration [FDA] […] Also cytotoxicity was assessed by determining the viability of cells based on the quantitation of ATP. […]
Results filed as inconclusive are left out. Calls of active or inactive are those of the source. The call rests on the fitted dose curve; in most records, active means well fitted cell-killing curve with a large enough effect in the repeat runs; inconclusive means weak or mixed curves, or effect the other way; inactive means flat fitted curve, though single readings scatter.
Measure name: Potency

INSERT INTO measurements (molecule, assay_result) VALUES
  ('CCCCCOC(=O)CCCC', 'inactive'),
  ('OCc1c[nH]c2ccccc12', 'inactive'),
  ('C/C=C(\C)C(=O)OCc1ccccc1', 'inactive'),
  ('O=C(NO)C1(NS(=O)(=O)c2ccc(Oc3ccc(F)cc3)cc2)CCOCC1', 'inactive'),
  ('COc1ccc(CN2CCN(C(c3ccc(F)cc3)c3ccc(F)cc3)CC2)c(OC)c1OC', 'inactive');

Answer with the recorded Potency for the molecule listed here: CCCCCCCCNC(C)C(O)c1ccc(SC(C)C)cc1 (stereo not given)
26.6 µM (active)

Identify the reported Potency for the following entry. O=C(c1ccc(O)cc1O)c1ccc(O)cc1O
inactive

Please look at this molecule and report its Potency: CCCC(c1cc(C(C)(C)C)c(O)cc1C)c1cc(C(C)(C)C)c(O)cc1C
27.6 µM (active)

Answer with reported Potency of CCCCCCCCCCCCc1ccc(O)cc1
61.1 µM (active)

Give me measured Potency, please, for this molecule: CC(=O)SC[C@@H](Cc1ccccc1)C(=O)NCC(=O)OCc1ccccc1
inactive

Give the reported value of Potency for this record: Cc1cc2c(cc1C(F)(F)F)N(C(=O)Nc1ccc(Oc3cccnc3C)nc1)CC2
inactive

State its Potency for this molecule: CCCCCCCCCCCCCCCCCC[N+](C)(C)Cc1ccccc1
61.7 µM (active)

// fetch Potency given entry Cc1cc(=O)oc2cc(N(C)C)ccc12
inactive

Give reported Potency value for COCCCC/C(=N\OCCN)c1ccc(C(F)(F)F)cc1
inactive

For the molecule C=CC(=O)OCC(CO)(COC(=O)C=C)COC(=O)C=C , report Potency.
61.3 µM (active)

* * *

Assay: qHTS assay to identify small molecule antagonists of the estrogen receptor alpha (ER-alpha) signaling pathway using the BG1 cell line (AID 743080);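 further: BG1 cells stimulated with 17beta-estradiol alongside compound; nearly all actives have a fitted effect of over 25% in size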
Settings: BG1Luc4E2 ERE-luciferase antagonist mode, luminescence; series mostly up to 70.3 µM
Records with an inconclusive call do not appear. Active and inactive are the calls of the source. The call rests on the fitted dose curve.
Please state which outcome applies, choosing from label 1 for active, label 0 for inactive

INSERT INTO assay_data (molecule, assigned_category) VALUES
  ('NC(=O)N1C(=O)C(C(=O)c2cc(Cl)cs2)c2cc(F)c(Cl)cc21 (configuration not stated)', 'label 0');

Any idea what this test logged for Fc1ccc([C@@H]2CCNC[C@H]2COc2ccc3c(c2)OCO3)cc1 ?
label 0

Name the outcome recorded for CNC(=O)c1ccccc1 in the assay.
label 0

Any idea what this test logged for CCCCCCCCOC(=O)c1ccc(O)cc1 ?
label 0

Which outcome did this test record for the molecule O=C1c2c(O)ccc(Nc3ccc(CCO)cc3)c2C(=O)c2c([N+](=O)[O-])ccc(O)c21 ?
label 0

How was CCCC(C)c1ccccc1O (configuration not stated) classified in this test?
label 0

Which outcome did this test record for the molecule Fc1ccc(C(c2ccc(F)cc2)N2CCN(C/C=C/c3ccccc3)CC2)cc1 ?
label 0

So what was the verdict on CCCCCOC(=O)CCCC in this test?
label 0

How did this test come out for OCCN1CCN(CC/C=C2/c3ccccc3Sc3ccc(C(F)(F)F)cc32)CC1 ?
label 0

So what was the verdict on CCC(N)(CO)CO in this test?
label 0

Called result for CC(=O)SC[C@@H](Cc1ccccc1)C(=O)NCC(=O)OCc1ccccc1
label 0

Hey, what did the test say about CSc1cnc(C)cn1 ?
label 0
